Target: cynomolgus PDL1, recombinant (Sino Biological) / PDL1-Fc chimeric protein (cynomolgus (Macaca fascicularis), UniProt G7PSE7 19-238)
Sequence (G7PSE7 entry or part of it mutant limits assumed): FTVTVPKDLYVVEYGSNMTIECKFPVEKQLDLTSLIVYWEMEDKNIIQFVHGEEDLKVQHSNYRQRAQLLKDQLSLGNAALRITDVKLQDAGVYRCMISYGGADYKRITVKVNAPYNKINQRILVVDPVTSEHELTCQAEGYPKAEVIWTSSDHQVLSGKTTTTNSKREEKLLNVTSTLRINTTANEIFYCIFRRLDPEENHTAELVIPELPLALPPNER
Test: SPR Biacore T200; cynomolgus PDL1 (Sino Biological) captured; scFv as analyte
ENDPOINT: kon (M⁻¹ s⁻¹)
Expressed in M⁻¹ s⁻¹, but write only the number.

The following binders have reported results that may help.
BINDER	OUTPUT UNIT	kon
PRO830 (33-03-G02-sc01 scFv) (scFv, also called 33-03-G02 CDR) scFv: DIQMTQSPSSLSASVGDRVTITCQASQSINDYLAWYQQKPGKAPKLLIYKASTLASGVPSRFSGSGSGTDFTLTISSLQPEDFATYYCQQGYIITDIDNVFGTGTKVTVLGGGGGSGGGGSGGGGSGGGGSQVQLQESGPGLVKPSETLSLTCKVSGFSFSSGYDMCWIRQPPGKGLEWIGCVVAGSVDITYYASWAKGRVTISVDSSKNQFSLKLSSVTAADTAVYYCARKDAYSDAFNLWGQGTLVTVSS	M⁻¹ s⁻¹	2.46e+06
PRO997/PRO908 (37-20-B03-sc01 scFv) (scFv, VL-linker-VH, VH4 CDR graft; PRO997 was made in CHO-S cells, PRO908 in bacteria; also called 37-20-B03 CDR) scFv: DIQMTQSPSSLSASVGDRVTITCQASQSIGTYLAWYQQKPGKAPKLLIYRAFILASGVPSRFSGSGSGTDFTLTISSLQPEDFATYYCQSNFYSDSTTIGPNAFGTGTKVTVLGGGGGSGGGGSGGGGSGGGGSQVQLQESGPGLVKPSETLSLTCKVSGFSFNSDYWIYWIRQPPGKGLEWIGSIYGGSSGNTQYASWAQGRVTISVDSSKNQFSLKLSSVTAADTAVYYCARGYVDYGGATDLWGQGTLVTVSS	M⁻¹ s⁻¹	5.96e+06
PRO1347 (37-20-B03-sc09 scFv) (scFv) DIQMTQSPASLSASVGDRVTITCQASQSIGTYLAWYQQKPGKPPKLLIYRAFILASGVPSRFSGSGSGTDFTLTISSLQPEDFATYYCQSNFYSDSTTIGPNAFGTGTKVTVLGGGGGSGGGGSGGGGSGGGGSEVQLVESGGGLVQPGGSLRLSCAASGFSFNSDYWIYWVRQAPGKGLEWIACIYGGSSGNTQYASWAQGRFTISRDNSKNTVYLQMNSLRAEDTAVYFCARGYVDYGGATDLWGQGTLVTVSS	M⁻¹ s⁻¹	6.88e+06

Per the records, this binder ( PRO1392 (33-03-G02-sc18 scFv) (scFv) scFv: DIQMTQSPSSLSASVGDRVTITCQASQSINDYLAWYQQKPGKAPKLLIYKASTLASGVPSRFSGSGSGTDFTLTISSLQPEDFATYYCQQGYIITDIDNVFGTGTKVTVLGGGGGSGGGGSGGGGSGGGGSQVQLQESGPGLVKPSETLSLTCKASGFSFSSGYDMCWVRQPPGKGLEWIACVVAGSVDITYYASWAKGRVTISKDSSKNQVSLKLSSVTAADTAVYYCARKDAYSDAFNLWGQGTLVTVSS ) has kon equal to 4.45e+06

Per the records, this binder ( PRO1183 (33-03-G02-sc03 scFv) (scFv, also called 33_03_G02 sc03 Full) scFv: DFQLTQSPSSLSASVGDRVTITCQASQSINDYLAWYQQKPGKSPKLLIYKASTLASGVPSRFSGSGSGTDFTLTISSLQPEDFATYYCQQGYIITDIDNVFGTGTKVTVLGGGGGSGGGGSGGGGSGGGGSQSQLQESGPGLVKPSETLSLTCKASGFSFSSGYDMCWVRQPPGKGLEWIACVVAGSVDITYYASWAKGRVTISKDSSKNQVSLKLSSVTAADTAVYFCARKDAYSDAFNLWGQGTLVTVSS ) has kon equal to 1.55e+06
